# METHOD: folding stability dG unfold (combined trypsin and chymotrypsin); higher = more stable
Attribute: folding stability dG unfold
I only need the number, in kcal/mol, no unit after it.

SEQUENCE_DATA	REPORTED_RESULT
SAGGSAGGSAGGMIKVLEKKEFTPPTGGKEYELKTLDESNGTESIIKFPKEEYKNLKIPSAGGSAGGSAGGS [r10_326_JUSTAS]	0.145

Suppose we examine the sequence SAGGSAGGSGAEEIAKALKELGVKKVEITVERNENGELTVTVRVEVEAPPPKVEVKTEEELKKSAGGSAGGS [r12_246_TrROS_Hall] ; what folding stability dG unfold value has been reported? 0.939

Suppose we examine the sequence SAGGSAGGSAGSSILSVVEEDPETGLRVVLSPVSDVPVRIVTKRIPEKEEIKVLEVERLPSAGGSAGGSAGG [r11_1066_JUSTAS] ; what folding stability dG unfold value has been reported? -0.746

* * *

# METHOD: folding stability dG unfold from chymotrypsin proteolysis; higher = more stable
MEASUREMENT_LABEL: folding stability dG unfold (kcal/mol)
I only need the number, in kcal/mol, no unit after it.

SEQUENCE_DATA	REPORTED_RESULT
SPPFKIKEIKIEIFPNGTVKIEYRFPSSGHYVKFSIPVDPKKGRIPINMEIYNPDNGKVWEFSATIRIKKSA [r9_825_TrROS]	4.86
SAGGSAGGEKGYKLVEITIPVTVYHGNKPYTIPIPIKVKSPEEVEKLKKFIENTSYDPTSGKFSSAGGSAGG [r6_197_TrMRF]	1.28
SAGGYELELVFRFKLELKVGDGTLSFDLDLVIRIPLEPPAVPIGVEVKEDGSLVLTYPNGLKAEIPLSAGGS [r16_136_TrMRF]	4.21
SAVVLKEPGPVTTVVTTDPATGVTTTVTTDPSAGTTTVTTTDPASAAVTTTTYTTLPDGTPVPTTTTTPASA [r9_1073_JUSTAS]	0.86
SAGGNIKIQVENHEDGWYMKIWVPGNGKEQEYPFEPGDTIDTLPPGAEPVKIEWFHMNDNPQEFELDSAGGS [r8_487_TrROS]	0.45

Suppose we examine the sequence SAGKIEIEVNEDGYKVRIKVEIEGKTYEFEIKVEGLSVEEIVKKALEELKKLFPNKKIKVEVEILPKKESAG [r5_180_TrROS_Hall] ; what folding stability dG unfold value has been reported? 4.81

Suppose we examine the sequence SMSPEALKKANEFAEYIAEHFKNWNIEIDVEVEWDPDGEITIRAKIEMRPPPPPPPKPKRDPNGKWKWEGSA [r9_82_TrROS] ; what folding stability dG unfold value has been reported? 2.3

* * *

# METHOD: folding stability dG unfold from trypsin proteolysis; higher = more stable
MEASUREMENT_LABEL: folding stability dG unfold (kcal/mol)
I only need the number, in kcal/mol, no unit after it.

SEQUENCE_DATA	MEASUREMENT_LABEL	REPORTED_RESULT
SMEPGELRLRAKVPLRIVNPDGEEIADIEIEVRSIEELEEAIAEAARELAERLGRPDAPVVIDDIEVEDESA [r9_376_TrMRF]	folding stability dG unfold	0.239
SAGKTATFTFTLPLPENDLILRVTVRVEEVEDIGEKKVYRVNVEIDLIDKDGVPHRFSFSFLVPAEELFSAG [r14_916_TrMRF]	folding stability dG unfold	3.39
SAGGSAGGSAGGMWYIRITYDNGREIWIPIGDPITIKHKDGKPVQIKEVEVYPLPPGQISAGGSAGGSAGGS [r10_20_TrROS]	folding stability dG unfold	2.04
SAGGKPNEKVKIKIKNKDGSEETIEIKVDEEVKIKIKFNGEEKEITIKKGETLTITLENAEIEVEKVSAGGS [r16_456_TrROS_Hall]	folding stability dG unfold	1.95
SMYYLVTITVTIRKDGKPVSVTPIYLAVPPEKAEEVAAEIKKSHPDLEVTITMEVTEVSEDDEEVKELLKSA [r9_782_JUSTAS]	folding stability dG unfold	1.92

Suppose we examine the sequence SAGGMMKYVVRIKIYNENGEEVKEIEIEIEMSEEEVEELARKLAEKLAEELGVEVKIVEVEIEKLEPSAGGS [r16_140_TrROS_Hall] ; what folding stability dG unfold value has been reported? 4.4

Suppose we examine the sequence SAGGGPLSPGSVPVEEEVTEVVEDPATGTVTTRSRVRYPDGVEVEVTTTTPAPGLPEVSTTEVTVRPASAGG [r13_894_JUSTAS] ; what folding stability dG unfold value has been reported? 0.978

* * *

# METHOD: folding stability dG unfold (combined trypsin and chymotrypsin); higher = more stable
folding stability dG unfold below 1 kcal/mol gives NOT MET; folding stability dG unfold at or above it gives MET.

The following sequences have reported results that may help.
SEQUENCE_DATA	CLASS_NAME
SAGGSAKPKVEVEIVDVEFEEVEVNGKKYLVMKMKVKLKETGEYIEVTMVFDLKTNKMYIEVKKLPSAGGSA [r15_528_TrROS_Hall]	MET
SAGGDNVRPIKFEFKDGVKKSIYRSEDMIYINVEFYYDGRPLYRHSIEIPNIPPGDDAEIKFKIPPGSAGGS [r8_155_TrROS]	MET
SAGGRTLEFNMKSNNPNMMENEISKLLRELGFPPGFDIEVNPERDPNGRYTYPITITVDNPELADKISAGGS [r8_85_TrROS]	NOT MET

Pending sequence:
Could you please find out whether SAGGSAGGGPPGTTTTTISTPDGPVTVTVSPTSVTVTRPGSNETVTSSGSPTTTLEEIAAEIAASAGGSAGG [r6_317_JUSTAS] has folding stability dG unfold that meets 1 kcal/mol or exceeds it? MET

* * *

# METHOD: folding stability dG unfold from chymotrypsin proteolysis; higher = more stable
folding stability dG unfold below 1 kcal/mol gives Criterion not met; folding stability dG unfold at or above it gives Criterion met.

SEQUENCE_DATA	CLASS_NAME
SAGGSAGGSAGKPKTKTITLTLLVYDEETGEFYRIEARIEINEDGSITIEEKIEKLPLKPSAGGSAGGSAGG [r11_941_TrROS_Hall]	Criterion met
SAGGFTIEELAEKFPNVEVYVQRFGNKYLIQFEFEDKDRKYQVVIKYDGPGKIDIKVMPPNQDAEEALSAGG [r13_859_TrROS]	Criterion met
SGMTTPVAEIDNTDGKPEKVKEWIKKTIPKTPPVTVTRTLASGAPSTWTIDPNTGKVTESVPGGHVTVAASA [r9_853_JUSTAS]	Criterion not met

Could you please find out whether SAGGSMVRVTIEDKDGKEHWIMIPPGMDPNDVKQQIKKFLEDNGWKVKDVEVETYPPGWAMIRVRVSAGGSA [r2_148_TrROS] has folding stability dG unfold that meets 1 kcal/mol or exceeds it? Criterion met

Could you please find out whether SAGGSAGGMVLRITLPNGEVIEIPLEELGLSEEERKRRLAELLAEELRKLFPGKEIKVEVVELPSAGGSAGG [r6_164_TrROS_Hall] has folding stability dG unfold that meets 1 kcal/mol or exceeds it? Criterion met

Could you please find out whether SAGGSAGGFIEYDPKTGTITVTFPSSVSPEDVRAAIEAAGFPATPVAYSYDPSPPVRTVTFKVASAGGSAGG [r6_396_JUSTAS] has folding stability dG unfold that meets 1 kcal/mol or exceeds it? Criterion not met

* * *

# METHOD: folding stability dG unfold from trypsin proteolysis; higher = more stable
Attribute: folding stability dG unfold
Remember to follow the number with its unit.

Worked examples, 8 sequences total:
SEQUENCE_DATA	folding stability dG unfold
SAGGYELELVFRFKLELKVGDGTLSFDLDLVIRIPLEPPAVPIGVEVKEDGSLVLTYPNGLKAEIPLSAGGS [r16_136_TrMRF]	3.32 kcal/mol
SAGGSAGGSAGGSGSSVLVKTTTTLSVAPGATITLPDGTVYTVPAGVPVTVTTWVLVETSAGGSAGGSAGGS [r4_232_JUSTAS]	2.31 kcal/mol
SAGGSAGGSAGGMVTTKTVVTFDPSGYITTTETIKVVGTDELLTKTSVTPVEPVPPLLSSAGGSAGGSAGGS [r10_928_JUSTAS]	-0.179 kcal/mol
MKPIPAEEIRDLAQKLGLPLPPGQIQIKVRHNNKKKTFPIPAGDPITIDDIVENMQQQNPNIKDIEIVIHPS [r1_135_TrROS]	-0.754 kcal/mol
SAGGTPVVVPATITVPVPFGAPARVTIFTPEDGHVLALIELPDGAVLVATFDPTTGELHVAPYADAASAGGS [r16_735_TrMRF]	1.19 kcal/mol
SAGGSAGGSAGLTFTLPDGTKITIETLEDGSVKIKIETLTPDGKPLEAEFVIPGSHPDEDSAGGSAGGSAGG [r17_471_TrMRF]	3.2 kcal/mol
SAGGSAGGSAGGSDGALIFIIHIKMEMELEPNPDGPPKWDMDWDIEPTWIQIDDPEDFKSAGGSAGGSAGGS [r4_450_TrROS]	1.59 kcal/mol
SAGGGMVRPSIKITKHPDTYVATVTVTHPHRPVTVTLPFSSEPEAISEAEKIVEELIATPVPSPAGASAGGS [r16_24_JUSTAS]	0.775 kcal/mol

Suppose we examine the sequence SAGGSAGMPSVPVERTVTVTVVDAEGNLVGTVTLTLTFPGGVSEEEREAAIAAAIEAAVPPAGVVSSAGGSA [r15_310_JUSTAS] ; what folding stability dG unfold value has been reported? 2.56 kcal/mol

Suppose we examine the sequence SAFKIERDPGNGQRKIKIEIPIIFPMGPEMRNMFKNMIKQWLAKHNPNVDIEIDIIPVKSPEQALEQIGSAG [r14_406_TrROS] ; what folding stability dG unfold value has been reported? 1.48 kcal/mol

Suppose we examine the sequence SAGGTTTESVSEDSTDNGEYVTTTTTTDPVGPSTVVTTTTTTTPADGTTTTTTTTYTVPPGAPASAVVSAGG [r13_3_JUSTAS] ; what folding stability dG unfold value has been reported? 0.354 kcal/mol

Suppose we examine the sequence SAGMVTTTTVTFPNGATMTVTTHSSGIITIEATSEEDARAFLEAQGLPLTSREVLPDGTYRFTAVVPPSAGG [r19_257_JUSTAS] ; what folding stability dG unfold value has been reported? 4.61 kcal/mol

Suppose we examine the sequence SAGGGFDIITITFGGIPITLTLEGEEEVKKFIEELPKLGIKTEILEKEKKIGPDGKPYVEVKVKAIPSAGGS [r8_336_JUSTAS] ; what folding stability dG unfold value has been reported? 0.299 kcal/mol

Suppose we examine the sequence SAGAIERILEWLKDQPPGDEVPIPIRLPNGWYIKINIEYNPEENKPKIEVEYYDPDDGKPRQEQKFTIPSAG [r5_35_TrROS] ; what folding stability dG unfold value has been reported? 1.59 kcal/mol
